// data source = ChEMBL document CHEMBL3885861

# Species on record: Rattus norvegicus
# Protocol Text: Open TG-GATES - Regimen: Daily Repeat
# Assay type: toxicity, organism-based, Sprague-Dawley
# Set-up: regimen Daily Repeat, gender Male, age 6 weeks
# Condition Info: in vivo, po, 0 mg/kg, […], tissue Blood, route gavage, dose level Control, time 7 day
Parameter: Bas (%)
Write it as a number; the unit % goes unstated.

Bas measured on Nc1c2c(nc3ccccc13)CCCC2 [TACRINE] = 0

Record Cc1nnc2n1-c1ccc(Cl)cc1C(c1ccccc1Cl)=NC2 [TRIAZOLAM] . Reported Bas: 0

Memo: CCOc1ccc(NC(C)=O)cc1 [PHENACETIN] , reported Bas: 0

The reported value for CCCc1cc(=O)[nH]c(=S)[nH]1 [PROPYLTHIOURACIL] in terms of Bas is 0

So for Brc1ccccc1 [BROMOBENZENE] , the logged Bas turned out to be 0.2

Bas recorded for this compound, CN(C)CCC(c1ccc(Cl)cc1)c1ccccn1 (stereo not given) [CHLORPHENIRAMINE] , is 0

The reported value for CNC(=C[N+](=O)[O-])NCCSCc1ccc(CN(C)C)o1 [RANITIDINE] in terms of Bas is 0

Looking up O=C(OC[C@H]1O[C@@H](OC(=O)c2cc(O)c(O)c(OC(=O)c3cc(O)c(O)c(O)c3)c2)[C@H](OC(=O)c2cc(O)c(O)c(OC(=O)c3cc(O)c(O)c(O)c3)c2)[C@@H](OC(=O)c2cc(O)c(O)c(OC(=O)c3cc(O)c(O)c(O)c3)c2)[C@@H]1OC(=O)c1cc(O)c(O)c(OC(=O)c2cc(O)c(O)c(O)c2)c1)c1cc(O)c(O)c(OC(=O)c2cc(O)c(O)c(O)c2)c1 [TANNIC ACID] , I see its Bas listed as 0

The reported value for CN/C(=N/CCSCc1nc[nH]c1C)NC#N [CIMETIDINE] in terms of Bas is 0.2

Value of Bas reported for the compound CC(C)NNC(=O)c1ccncc1 [IPRONIAZID] is 0

---

# Species on record: Rattus norvegicus
# Protocol Text: Open TG-GATES - Regimen: Daily Repeat
# Assay type: toxicity, organism-based, Sprague-Dawley
# Design: regimen Daily Repeat, gender Male, age 6 weeks
# Condition Info: in vivo, po, 0 mg/kg, 72 h, tissue Blood, route gavage, dose level Control, time 3 day
Exercise: state measured WBC for each of the compounds provided.
Numbers only here, please. The scale is x10_2/uL.

The measured WBC associated with CN/C(=N/CCSCc1nc[nH]c1C)NC#N reads 102.1

Query O=C(OC[C@H]1O[C@@H](OC(=O)c2cc(O)c(O)c(OC(=O)c3cc(O)c(O)c(O)c3)c2)[C@H](OC(=O)c2cc(O)c(O)c(OC(=O)c3cc(O)c(O)c(O)c3)c2)[C@@H](OC(=O)c2cc(O)c(O)c(OC(=O)c3cc(O)c(O)c(O)c3)c2)[C@@H]1OC(=O)c1cc(O)c(O)c(OC(=O)c2cc(O)c(O)c(O)c2)c1)c1cc(O)c(O)c(OC(=O)c2cc(O)c(O)c(O)c2)c1 yields WBC of 101.4

Looking up CC(C)NNC(=O)c1ccncc1 , I see its WBC listed as 99.6

---

For each of the compounds below, state its gamma-GTP.
# Organism: Rattus norvegicus
# Protocol Text: Open TG-GATES - Regimen: Single
# Assay type: toxicity, organism-based, Sprague-Dawley
# Design: regimen Single, gender Male, age 6 weeks
# Condition Info: in vivo, po, 0 mg/kg, 6 h, tissue Plasma, route gavage, dose level Control
Record the value in IU/L, omitting the unit from your answer.

Entry under test: CNC(=C[N+](=O)[O-])NCCSCc1ccc(CN(C)C)o1 . Its gamma-GTP was 1

Looking up CC(C)NNC(=O)c1ccncc1 , I found its gamma-GTP recorded as 1

Note to self: gamma-GTP recorded for CCOc1ccc(NC(C)=O)cc1 was 1.4

gamma-GTP reading for COC(=O)C1=C(C)NC(C)=C(C(=O)OC)C1c1ccccc1[N+](=O)[O-] : 1

Note to self: gamma-GTP recorded for Cc1nnc2n1-c1ccc(Cl)cc1C(c1ccccc1Cl)=NC2 was 1

---

# Organism: Rattus norvegicus
# Protocol Text: Open TG-GATES - Regimen: Daily Repeat
# Format: toxicity, organism-based, Sprague-Dawley
# Design: regimen Daily Repeat, gender Male, age 6 weeks
# Condition Info: in vivo, po, 0 mg/kg, […], tissue Blood, route gavage, dose level Control, time 14 day
Parameter: RBC (x10_4/ul)
Your answer is read as x10_4/ul, so omit the unit and give the number.

RBC in this record for CNC(=C[N+](=O)[O-])NCCSCc1ccc(CN(C)C)o1 [RANITIDINE] : 720.6

Just so you know, measured RBC for CCCc1cc(=O)[nH]c(=S)[nH]1 [PROPYLTHIOURACIL] came out at 697.6

The compound CCOc1ccc(NC(C)=O)cc1 [PHENACETIN] showed RBC equal to 720.4

Noted for COC(=O)C1=C(C)NC(C)=C(C(=O)OC)C1c1ccccc1[N+](=O)[O-] [NIFEDIPINE] : its RBC reads 720.2

---

Hi there, I'd appreciate the recorded gamma-GTP for every entry that follows.
# Species on record: Rattus norvegicus
# Protocol Text: Open TG-GATES - Regimen: Daily Repeat
# Assay type: toxicity, organism-based, Sprague-Dawley
# Design: regimen Daily Repeat, gender Male, age 6 weeks
# Condition Info: in vivo, po, 100 mg/kg, 72 h, tissue Plasma, route gavage, dose level Low, time 3 day
Respond with the bare value in IU/L.

Kindly note the recorded gamma-GTP for CN/C(=N/CCSCc1nc[nH]c1C)NC#N , which is 1.2

// field: gamma-GTP; key: CCOc1ccc(NC(C)=O)cc1 ; value = 1.2

# compound CNC(=C[N+](=O)[O-])NCCSCc1ccc(CN(C)C)o1 ; its gamma-GTP = 1

---

# Organism: Rattus norvegicus
# Protocol Text: Open TG-GATES - Regimen: Single
# Assay type: toxicity, organism-based, Sprague-Dawley
# Design: regimen Single, gender Male, age 6 weeks
# Condition Info: in vivo, po, 0 mg/kg, 6 h, tissue Blood, route gavage, dose level Control
Provide the reported Eos of each item.
The response must be a number in % with no trailing unit.

Entry Brc1ccccc1 [BROMOBENZENE] — recorded Eos = 1

Field Eos (entry CCOc1ccc(NC(C)=O)cc1 [PHENACETIN] ) reads 1

Memo: CN/C(=N/CCSCc1nc[nH]c1C)NC#N [CIMETIDINE] , reported Eos: 1

---

Consider the following molecules; for each one, report its MCV.
# Species: Rattus norvegicus
# Protocol Text: Open TG-GATES - Regimen: Single
# Assay type: toxicity, organism-based, Sprague-Dawley
# Design: regimen Single, gender Male, age 6 weeks
# Condition Info: in vivo, po, 300 mg/kg, 6 h, tissue Blood, route gavage, dose level Middle
The reply should contain only the number, in fL.

// CNC(=C[N+](=O)[O-])NCCSCc1ccc(CN(C)C)o1 [RANITIDINE] : MCV value = 62.4

Query COC(=O)C1=C(C)NC(C)=C(C(=O)OC)C1c1ccccc1[N+](=O)[O-] [NIFEDIPINE] yields MCV of 63.5

Lab book: MCV of CN/C(=N/CCSCc1nc[nH]c1C)NC#N [CIMETIDINE] noted as 62.2

---

# Species: Rattus norvegicus
# Protocol Text: Open TG-GATES - Regimen: Daily Repeat
# Type: toxicity, organism-based, Sprague-Dawley
# Parameters: regimen Daily Repeat, gender Male, age 6 weeks
# Condition Info: in vivo, po, 0 mg/kg, […], tissue Plasma, route gavage, dose level Control, time 14 day
Parameter: DBIL (mg/dL)
The figure you give is taken to be in mg/dL; do not add the unit.

Entry Cc1nnc2n1-c1ccc(Cl)cc1C(c1ccccc1Cl)=NC2 — recorded DBIL = 0.012

Lookup result for Nc1c2c(nc3ccccc13)CCCC2 ; measured DBIL: 0

DBIL reading for CN1C(=O)CCS(=O)(=O)C1c1ccc(Cl)cc1 (stereo unspecified) : 0.008

Looking up CNC(=C[N+](=O)[O-])NCCSCc1ccc(CN(C)C)o1 , I found its DBIL recorded as 0.088

Looking up CN/C(=N/CCSCc1nc[nH]c1C)NC#N , I see its DBIL listed as 0.1

The measured DBIL associated with CN(C)CCC(c1ccc(Cl)cc1)c1ccccn1 (stereo unspecified) reads 0.016

---

# Organism: Rattus norvegicus
# Protocol Text: Open TG-GATES - Regimen: Single
# Assay type: toxicity, organism-based, Sprague-Dawley
# Design: regimen Single, gender Male, age 6 weeks
# Condition Info: in vivo, po, 0 mg/kg, 3 h, tissue Plasma, route gavage, dose level Control
Note to self: TG under 50 mg/dL means TRUE, ties and anything higher get FALSE.

In: Is it true that TG reported for CCOc1ccc(NC(C)=O)cc1 is less than 50 mg/dL?
Out: FALSE

In: Find out if reported TG for Nc1c2c(nc3ccccc13)CCCC2 is less than 50 mg/dL
Out: FALSE

In: Identify whether the compound Cc1nnc2n1-c1ccc(Cl)cc1C(c1ccccc1Cl)=NC2 records TG below 50 mg/dL.
Out: TRUE

In: Does CC(C)NNC(=O)c1ccncc1 have TG strictly under 50 mg/dL?
Out: FALSE

In: In plain terms, does NC1=NC(=O)C(c2ccccc2)O1 (stereo unspecified) come in under 50 mg/dL for TG?
Out: TRUE
